The reported measurements were obtained from paper doi:10.1101/2021.09.17.460839.

Study target: Rv0792c G80D G80D (Mycobacterium tuberculosis) (UniProt O86331)
Sequence: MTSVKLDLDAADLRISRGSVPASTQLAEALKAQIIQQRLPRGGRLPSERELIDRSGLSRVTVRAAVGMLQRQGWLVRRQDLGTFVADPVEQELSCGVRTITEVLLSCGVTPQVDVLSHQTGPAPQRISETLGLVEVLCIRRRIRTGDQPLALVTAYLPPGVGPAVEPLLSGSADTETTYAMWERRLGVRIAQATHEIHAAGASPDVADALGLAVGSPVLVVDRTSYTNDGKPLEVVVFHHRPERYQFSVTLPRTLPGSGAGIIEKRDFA
Method summary: ALISA
pKd: −log10 of the molar value.
Endpoint label: pKd

Chain sequence: TCTAGTCATTCGTCATAATCCCATCTGTTTCTTCCTCCTTCCGT [Rv0792c_2 aptamer (printed Rv0729c_2)]
Study target: Rv0792c G80D G80D (Mycobacterium tuberculosis) (UniProt O86331)
Numeric readout: 6.92
